# study.system: furin, P09958;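 also: purified furin at 1:10 enzyme:substrate in 50 mM HEPES pH 7.5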
# Sequence (P09958 whole entry): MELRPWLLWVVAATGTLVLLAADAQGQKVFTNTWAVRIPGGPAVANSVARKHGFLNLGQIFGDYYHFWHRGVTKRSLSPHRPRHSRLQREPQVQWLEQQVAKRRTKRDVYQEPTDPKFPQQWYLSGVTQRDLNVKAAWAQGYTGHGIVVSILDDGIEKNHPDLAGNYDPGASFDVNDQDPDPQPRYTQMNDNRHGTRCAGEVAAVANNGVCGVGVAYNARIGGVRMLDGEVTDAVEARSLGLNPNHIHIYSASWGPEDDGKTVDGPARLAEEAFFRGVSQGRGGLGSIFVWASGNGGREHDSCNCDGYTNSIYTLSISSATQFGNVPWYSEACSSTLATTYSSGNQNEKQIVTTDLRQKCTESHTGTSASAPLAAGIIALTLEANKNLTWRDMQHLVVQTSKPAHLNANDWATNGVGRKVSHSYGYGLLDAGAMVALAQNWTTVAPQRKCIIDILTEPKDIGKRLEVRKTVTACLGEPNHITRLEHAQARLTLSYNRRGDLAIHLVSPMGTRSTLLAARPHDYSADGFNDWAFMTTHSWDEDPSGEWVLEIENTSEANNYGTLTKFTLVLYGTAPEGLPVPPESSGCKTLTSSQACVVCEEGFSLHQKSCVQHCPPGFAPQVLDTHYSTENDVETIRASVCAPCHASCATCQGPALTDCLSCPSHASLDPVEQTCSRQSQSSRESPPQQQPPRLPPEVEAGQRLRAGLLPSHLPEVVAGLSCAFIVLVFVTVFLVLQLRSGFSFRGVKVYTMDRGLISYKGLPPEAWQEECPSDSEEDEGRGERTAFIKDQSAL
# assay.remarks: furin cleavage Z-score vs untreated control; higher = more cleavage, active = 3.5 or more, inactive = 1 or less, 8 variable residues between constant flanks
# test.context: 7.5 min
This is one part of the list. The hit rate among all sequences tested is not known here.
Response enum: active, inactive

Record request — test call for CARLDRSYSYAGNASASA [FS-2986]
inactive

Consider next the sequence CAMLSPEKRSAGNASASA [FS-178] in the same way.
inactive

Check CARRRRSISRAGNASASA [FS-2795] too.
active

Can you check CADPMLEKRSAGNASASA [FS-1517] next?
inactive

Also need CAACIRKRRLAGNASASA [FS-1582] , thanks.
active

Repeat with CARFKRQTSYAGNASASA [FS-2923]
active

Try this sequence next: CARTPRPGEQAGNASASA [FS-2832]
inactive

Also CAIPARMKRAAGNASASA [FS-599] , if possible.
active

Would you mind doing CALPAPNYTFAGNASASA [HC1197] as well?
inactive

Another sequence to look at: CARKKRSAQNAGNASASA [FS-2036]
active

Quick one: CAAEAAGRRLAGNASASA [HC1252]
inactive

Likewise for CARFPRTWWQAGNASASA [FS-1949] ?
inactive

Same question for CARRRRSSVFAGNASASA [FS-2599] please.
active

Try this sequence next: CATLDREKRSAGNASASA [FS-98]
active

Check CARTRRHLHDAGNASASA [FS-2615] too.
active

Can you check CAPTPCSAHLAGNASASA [HC2479] next?
inactive

Thanks! And CATLDRSKRNAGNASASA [FS-1494] ?
active

// repeat for CARTPRGLDDAGNASASA [FS-3110] and report
active

Another sequence: CATVPCSGSWAGNASASA [HC1850]
inactive

Try this sequence too: CARTRRALSDAGNASASA [FS-3173]
active

And the next one, CAWKDLLEDNAGNASASA [HC1432] ?
inactive

Likewise for CAGDIRVRRLAGNASASA [FS-423] ?
active

Now consider CARTRRLLDKAGNASASA [FS-2834] .
inactive

Same question, CALPQRLPRAAGNASASA [FS-1363] this time
active

What do we get for CALSIRDARMAGNASASA [FS-1466] ?
inactive

Now the same for CASTPCSAHPAGNASASA [HC2579]
inactive

Lookup CARQDRSKGTAGNASASA [FS-2225]
inactive
